tested-target: human GHSR1a (Homo sapiens, UniProt Q92847)
Sequence (Q92847 whole entry): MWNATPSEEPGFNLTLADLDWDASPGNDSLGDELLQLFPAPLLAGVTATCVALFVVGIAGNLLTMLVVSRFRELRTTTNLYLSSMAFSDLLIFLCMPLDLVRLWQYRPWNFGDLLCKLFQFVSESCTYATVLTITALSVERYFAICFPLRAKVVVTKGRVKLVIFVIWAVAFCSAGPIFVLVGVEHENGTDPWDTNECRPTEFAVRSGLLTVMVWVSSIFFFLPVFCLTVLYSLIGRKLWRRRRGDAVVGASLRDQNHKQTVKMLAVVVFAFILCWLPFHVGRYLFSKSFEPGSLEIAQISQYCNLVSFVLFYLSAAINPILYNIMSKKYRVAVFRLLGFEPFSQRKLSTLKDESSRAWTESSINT
assay-overview: Aequorin luminescent functional assay (intracellular Ca2+, ghrelin-stimulated)
test-conditions: stable cell line expressing human GHSR1a and apoaequorin; final ghrelin 3x EC50 (20 nM); read-out: Class (based on IC50 values)
quantity: IC50

[
  {
    "compound": "O=C1c2cc(Oc3ccc(F)cc3F)ccc2CCN1[C@@H](c1cccc(CNCCF)n1)C1CC1",
    "value": "≤ 10 nM"
  },
  {
    "compound": "CC(C)(CO)NCc1cccc([C@@H](C2CC2)N2CCc3ccc(Oc4ccc(F)cc4F)cc3C2=O)n1",
    "value": "≤ 10 nM"
  },
  {
    "compound": "CC(C)C(c1cccc(CN(C)C)c1)N1CC(=O)Nc2ccc(Oc3ccc(F)cc3F)cc2C1=O (centres unmarked)",
    "value": "≤ 10 nM"
  },
  {
    "compound": "Cc1ccccc1Oc1ccc2ncn(C(C(=O)NC3CCN(Cc4ccccc4)CC3)C(C)C)c(=O)c2c1 (centres unmarked)",
    "value": "10 to 50 nM"
  },
  {
    "compound": "CC(C)C(C(=O)N1CCC(NC2CC2)CC1)N1CC(=O)Nc2ccc(Oc3ccccc3C(C)(C)C)cc2C1=O (centres unmarked)",
    "value": "10 to 50 nM"
  },
  {
    "compound": "Cc1cccc(C)c1Oc1ccc2c(c1)C(=O)N(C(C(=O)N1CCC(NCCc3ccc(F)cc3)CC1)C(C)C)CC(=O)N2 (centres unmarked)",
    "value": "≤ 10 nM"
  },
  {
    "compound": "O=C1c2cc(Oc3ccc(F)cc3F)ccc2CCN1[C@@H](c1cccc(CNCC(F)F)n1)C1CC1",
    "value": "≤ 10 nM"
  },
  {
    "compound": "CC(C)C(C(=O)N1CCC(NCC2CC2)CC1)N1CCc2ccc(Oc3ccc(F)cc3F)cc2C1=O (centres unmarked)",
    "value": "≤ 10 nM"
  },
  {
    "compound": "CC(C)C(COC(=O)NC1CCN(Cc2ccc(F)cc2)CC1)N1CC(=O)Nc2ccc(Oc3ccc(F)cc3)cc2C1=O (centres unmarked)",
    "value": "50 to 500 nM"
  },
  {
    "compound": "CC(C)C(COC(=O)NC1CCN(Cc2ccccc2)CC1)N1CC(=O)Nc2ccc(Oc3ccc(F)cc3)cc2C1=O (centres unmarked)",
    "value": "50 to 500 nM"
  },
  {
    "compound": "O=C1c2cc(Oc3ccc(F)cc3F)ccc2CCN1C(c1cccc(CCNCC2CC2)c1)C1CC1 (centres unmarked)",
    "value": "≤ 10 nM"
  },
  {
    "compound": "CC(C)NCc1cccc(C(C(C)C)N2CC(=O)Nc3ccc(Oc4ccc(F)cc4F)cc3C2=O)c1 (centres unmarked)",
    "value": "≤ 10 nM"
  },
  {
    "compound": "C[C@H](CO)NCc1cccc([C@@H](C2CC2)N2CCc3ccc(Oc4ccc(F)cc4F)cc3C2=O)n1",
    "value": "≤ 10 nM"
  },
  {
    "compound": "Cc1ccccc1Oc1ccc2c(c1)C(=O)N([C@@H](C(=O)N1CCC(N[C@@H]3CCc4ccccc43)CC1)C(C)C)CCN2",
    "value": "≤ 10 nM"
  }
]
